Test system: mu opiate receptor (MOR)
assay: MOR agonist activity using [35S]GTPγS binding assay in striatal membranes
Assay type: biochemical
condition-parameters: 1 μM compound + 1 μM β-funaltrexamine
Experimental: To assess the mu opiate receptor (MOR) agonist activity of positive compounds from the FLNA screening, compounds were tested in a [^35S]GTPγS binding assay using striatal membranes. […] The immunocomplexes so formed were collected by incubation at 25° C. for 30 minutes with 40 μl of agarose-conjugated protein A/G beads and centrifugation at 5,000×g at 4° C. for 5 minutes. […] The radioactivity in the suspension was determined by liquid scintillation spectrometry.
Field: MOR agonist activity ([35S]GTPγS binding), FLNA-Binding Compound as Agonist 1 μM + BFNA. Provide a value for each of the molecules that follow.
Numeric only. Scale: %

What value of measured MOR agonist activity ([35S]GTPγS binding), FLNA-Binding Compound as Agonist 1 μM + BFNA is listed for CC1CCC(C(C)C)C(OCC(O)CN2CCOCC2)C1 (centres unmarked) ?
86.0

Reported MOR agonist activity ([35S]GTPγS binding), FLNA-Binding Compound as Agonist 1 μM + BFNA for COc1c2c(cc3c1OCO3)CCN(CC(O)COC1CC(C)CCC1C(C)C)C2 (centres unmarked) : what is it?
10.7

Would you mind telling me what MOR agonist activity ([35S]GTPγS binding), FLNA-Binding Compound as Agonist 1 μM + BFNA value was observed for COc1ccc(OCC(O)CN2CCOc3ccccc32)cc1 (centres unmarked) ?
41.2

Could you share which MOR agonist activity ([35S]GTPγS binding), FLNA-Binding Compound as Agonist 1 μM + BFNA value was measured for CC1CN(CC(O)COc2cccc(N(C)C)c2)CC(C)O1 (centres unmarked) ?
89.5

So what's the measured MOR agonist activity ([35S]GTPγS binding), FLNA-Binding Compound as Agonist 1 μM + BFNA for this one? OC(COc1ccc(Br)c(F)c1)CN1CCSCC1 (centres unmarked)
85.7

Recorded MOR agonist activity ([35S]GTPγS binding), FLNA-Binding Compound as Agonist 1 μM + BFNA for CC1CN(CC(O)COc2cccc(C(F)(F)F)c2)CC(C)O1 (centres unmarked) , please?
211.6

// query MOR agonist activity ([35S]GTPγS binding), FLNA-Binding Compound as Agonist 1 μM + BFNA value for entry CC1CCC(C(C)C)C(OCC(O)CN2CCN(C)CC2)C1 (centres unmarked)
93.9

Give its MOR agonist activity ([35S]GTPγS binding), FLNA-Binding Compound as Agonist 1 μM + BFNA value. Item: CC1CCC(C(C)C)C(OCC(O)Cn2cccc2)C1 (centres unmarked)
107.0

# input molecule: CC1CCC(C(C)C)C(OCC(O)CN2CCC(=O)C(C)C2)C1 (centres unmarked) ; wanted: its MOR agonist activity ([35S]GTPγS binding), FLNA-Binding Compound as Agonist 1 μM + BFNA
17.4

What value of measured MOR agonist activity ([35S]GTPγS binding), FLNA-Binding Compound as Agonist 1 μM + BFNA is listed for CC1CN(CC(O)COc2ccccc2Br)CC(C)O1 (centres unmarked) ?
89.1

Recorded MOR agonist activity ([35S]GTPγS binding), FLNA-Binding Compound as Agonist 1 μM + BFNA of CC1CCC(C(C)C)C(OCC(O)CN2CCN(CCN3CCCCC3)CC2)C1 (centres unmarked) , please.
150.9

Suppose we examine the molecule CC1CN(CC(O)COc2ccc(Br)c(F)c2)CC(C)O1 (centres unmarked) ; what MOR agonist activity ([35S]GTPγS binding), FLNA-Binding Compound as Agonist 1 μM + BFNA value has been reported?
50.6

# lookup: MOR agonist activity ([35S]GTPγS binding), FLNA-Binding Compound as Agonist 1 μM + BFNA of CC1CCC(C(C)C)C(OCC(O)CN2CCCN(C)CC2)C1 (centres unmarked)
190.3

# lookup: MOR agonist activity ([35S]GTPγS binding), FLNA-Binding Compound as Agonist 1 μM + BFNA of CC1CCC(C(C)C)C(OCC(O)CN2CCCc3ccccc32)C1 (centres unmarked)
98.1

Param item = CC1CCC(C(C)C)C(OCC(O)CN2CCCCCC2)C1 (centres unmarked) ; retrieve measured MOR agonist activity ([35S]GTPγS binding), FLNA-Binding Compound as Agonist 1 μM + BFNA.
86.1

Fill in the blank: the reported MOR agonist activity ([35S]GTPγS binding), FLNA-Binding Compound as Agonist 1 μM + BFNA of CC1CCCC(OCC(O)CN2CC(C)OC(C)C2)C1 (centres unmarked) is ____.
12.1

Any idea what its MOR agonist activity ([35S]GTPγS binding), FLNA-Binding Compound as Agonist 1 μM + BFNA is? The molecule is CC1CCC(C(C)C)C(OCC(O)CN2CCCCCCC2)C1 (centres unmarked)
140.8

Consider the molecule CC1CCC(C(C)C)C(OCC(O)CN2CC(C)CC(C)C2)C1 (centres unmarked) and give its measured MOR agonist activity ([35S]GTPγS binding), FLNA-Binding Compound as Agonist 1 μM + BFNA.
133.9

GET /values?readout=MOR agonist activity ([35S]GTPγS binding), FLNA-Binding Compound as Agonist 1 μM + BFNA&item= CC1CCC(C(C)C)C(OCC(O)CN2CCC2)C1 (centres unmarked)
62.5

Returns the measured MOR agonist activity ([35S]GTPγS binding), FLNA-Binding Compound as Agonist 1 μM + BFNA for the input molecule. Input: CCN(CC)CC(O)COC1CC(C)CCC1C(C)C (centres unmarked)
133.0

What value of measured MOR agonist activity ([35S]GTPγS binding), FLNA-Binding Compound as Agonist 1 μM + BFNA is listed for CN(C)c1cccc(OCC(O)CN2CCc3ccccc3C2)c1 (centres unmarked) ?
81.0

Please look up its MOR agonist activity ([35S]GTPγS binding), FLNA-Binding Compound as Agonist 1 μM + BFNA: CC1CCC(C(C)C)C(OCC(O)CN2CCOc3ccccc32)C1 (centres unmarked)
59.2

// query MOR agonist activity ([35S]GTPγS binding), FLNA-Binding Compound as Agonist 1 μM + BFNA value for entry CC1CCC(C(C)C)C(OCC(O)CN2CCCCC2C)C1 (centres unmarked)
40.4
